B1: BCL2L13 (parent)
chain: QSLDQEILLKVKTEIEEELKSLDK

Variants of: B1
method.summary: protein stability index of a GFP-peptide fusion (GPS, HEK-293T) (PSI 1-6); higher = more stable;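 note: lentivirally expressed fusions sorted by FACS into six bins by GFP to DsRed ratio, PSI derived from sequencing read proportions per bin multiplied by bin number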
settings: c terminus: a fixed tail appended
# key: entry, value: protein stability index
measured.property: protein stability index

mutant.designation: E16N
recorded.measurement: 5.02

mutant.designation: S2M
recorded.measurement: 4.2

mutant.designation: E14M
recorded.measurement: 3.7

mutant.designation: E17F
recorded.measurement: 3.54

mutant.designation: D4T
recorded.measurement: 3.5

mutant.designation: D4C
recorded.measurement: 4

mutant.designation: D23A
recorded.measurement: 2.63

mutant.designation: I7H
recorded.measurement: 5.07

mutant.designation: E14G
recorded.measurement: 5.05

mutant.designation: E16D
recorded.measurement: 5.17

mutant.designation: S21M
recorded.measurement: 4.67

mutant.designation: I7P
recorded.measurement: 5.83

mutant.designation: E18I
recorded.measurement: 2.58

mutant.designation: L8T
recorded.measurement: 5.71

mutant.designation: E18K
recorded.measurement: 3.74

mutant.designation: E17Y
recorded.measurement: 3.67

mutant.designation: S21F
recorded.measurement: 4.72

mutant.designation: K12A
recorded.measurement: 4.94

mutant.designation: Q5Y
recorded.measurement: 3.38

mutant.designation: D23F
recorded.measurement: 2.14

mutant.designation: E16P
recorded.measurement: 4.69

mutant.designation: K10Y
recorded.measurement: 3.85
